- METHOD: compound fluorescence in GFP channel, mTEFS cells – imaging, mTEFS fibroblasts, cherry-pick, artefact control for X-chromosome reactivation project, dose response (AID 743396);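 note: raw share of Hoechst-counted cells scored GFP positive without control normalization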
- RUN CONDITIONS: mTEFS fibroblasts autofluorescence, GFP-channel imaging, 3 days; at 19.5 µM (top of the series); cells pretreated with 5-aza-dC
VALUE TYPE: % fluorescent cells increase (%)
Hi! Could you send only the number? It should be in %, unit omitted.

# annotated cases, reported % fluorescent cells increase shown
Cc1nc(NC(=O)C(Cl)Cl)sc1C(=O)N(C)C; 0
O=C(CSc1nc2ccccc2[nH]1)N/N=C/C=C/c1ccccc1[N+](=O)[O-]; 0.094
CCc1ccc(NS(=O)(=O)c2cccc3nonc23)cc1; 5.79
CC(=O)Nc1ccc(NS(=O)(=O)c2ccc3c(c2)oc(=O)n3C)cc1; 0.01
COc1cccc(CNC(=O)CNC(=S)N(Cc2ccccc2)Cc2ccccc2F)c1; 0.054

Problem: For the compound Cc1nn(-c2ccccc2)c(N)c1N=O , report % fluorescent cells increase.
Result: 0

Problem: Please report the measured % fluorescent cells increase for CC(=NNC(=S)Nc1cccc(Cl)c1)c1ccccn1
Result: 0

Problem: Please list % fluorescent cells increase recorded for the compound C[C@@H]1CN([C@@H](C)CO)S(=O)(=O)c2ccc(C#CC3CC3)cc2O[C@H]1CN(C)Cc1ccc(F)cc1
Result: 0.107

Problem: // Input: COc1ccc(NC(=O)C(=O)NCCC2CCCCN2S(=O)(=O)c2cccs2)cc1 (stereo unspecified) . Output its % fluorescent cells increase only.
Result: 2.33

Problem: Supply % fluorescent cells increase value. Item: CCN(CC)c1ccc(/C=C/C(=O)C2C(=O)C=C(C)OC2=O)cc1 (stereo unspecified)
Result: 1.2

Problem: Fill in reported % fluorescent cells increase for this entry: CCSc1nnc(NC(=O)c2cc(OC)c(OC)c(OC)c2)s1
Result: 0

====

- METHOD: compound fluorescence in GFP channel, mTEFS cells – imaging, mTEFS fibroblasts, cherry-pick, artefact control for X-chromosome reactivation project, dose response (AID 743396);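 note: raw share of Hoechst-counted cells scored GFP positive without control normalization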
- RUN CONDITIONS: mTEFS fibroblasts autofluorescence, GFP-channel imaging, 3 days; at 19.5 µM (top of the series); cells pretreated with 5-aza-dC
VALUE TYPE: % fluorescent cells increase (%)
Report the value in % with no unit label.

Known results for molecules:
CCOC(=O)/C(C#N)=C/C=C1/C=CC=CN1C; 0.015
C[C@@H]1CN([C@H](C)CO)C(=O)c2cc(NC(=O)Nc3ccc4c(c3)OCO4)ccc2O[C@@H](C)CCCCO[C@@H]1CN(C)C(=O)Cc1ccccc1; 0.027
COc1ccc(NS(=O)(=O)c2ccc(NC(C)=O)cc2)nn1; -0.003

Problem: Identify % fluorescent cells increase associated with the molecule COc1cc(/C=C/c2ccc3cccc(O)c3n2)c(Br)cc1O
Result: 0

Problem: Return value of % fluorescent cells increase for input CC=Cc1ccc2n(c1=O)C[C@@H]1[C@@H](CO)[C@H](C(=O)NCCCN(C)C)[C@H]2N1C(=O)c1ccccc1F (mixture of isomers) , no commentary.
Result: 0.025

Problem: Recall and state the measured % fluorescent cells increase for CC(=O)Oc1ccc2c(=O)c(-c3ccccc3)coc2c1 .
Result: 0.02

Problem: Please list % fluorescent cells increase recorded for the molecule C/C=C/Cn1c(SCCCc2ccccc2)nc2c1c(=O)[nH]c(=O)n2C
Result: -0.004

Problem: Please give measured % fluorescent cells increase of the following entry: CC(C)Oc1ccc(/C(O)=C2/C(=O)C(=O)N(CCN(C)C)C2c2cccs2)cc1 (stereo unspecified)
Result: 0

Problem: Please supply the value of reported % fluorescent cells increase for the item COc1cccc2cc(C(=O)N(Cc3cccs3)CC3CCCO3)c(=O)oc12 (stereo unspecified)
Result: 0.013

Problem: For COc1ccc(NC(=O)CCc2ccccc2)cc1S(=O)(=O)N1CCCCC1 , write its % fluorescent cells increase.
Result: 0.183
